Where do the numbers come from? From ChEMBL document CHEMBL5113395.

Target: UniProt:Q9UBN7
Sequence (Q9UBN7 whole entry): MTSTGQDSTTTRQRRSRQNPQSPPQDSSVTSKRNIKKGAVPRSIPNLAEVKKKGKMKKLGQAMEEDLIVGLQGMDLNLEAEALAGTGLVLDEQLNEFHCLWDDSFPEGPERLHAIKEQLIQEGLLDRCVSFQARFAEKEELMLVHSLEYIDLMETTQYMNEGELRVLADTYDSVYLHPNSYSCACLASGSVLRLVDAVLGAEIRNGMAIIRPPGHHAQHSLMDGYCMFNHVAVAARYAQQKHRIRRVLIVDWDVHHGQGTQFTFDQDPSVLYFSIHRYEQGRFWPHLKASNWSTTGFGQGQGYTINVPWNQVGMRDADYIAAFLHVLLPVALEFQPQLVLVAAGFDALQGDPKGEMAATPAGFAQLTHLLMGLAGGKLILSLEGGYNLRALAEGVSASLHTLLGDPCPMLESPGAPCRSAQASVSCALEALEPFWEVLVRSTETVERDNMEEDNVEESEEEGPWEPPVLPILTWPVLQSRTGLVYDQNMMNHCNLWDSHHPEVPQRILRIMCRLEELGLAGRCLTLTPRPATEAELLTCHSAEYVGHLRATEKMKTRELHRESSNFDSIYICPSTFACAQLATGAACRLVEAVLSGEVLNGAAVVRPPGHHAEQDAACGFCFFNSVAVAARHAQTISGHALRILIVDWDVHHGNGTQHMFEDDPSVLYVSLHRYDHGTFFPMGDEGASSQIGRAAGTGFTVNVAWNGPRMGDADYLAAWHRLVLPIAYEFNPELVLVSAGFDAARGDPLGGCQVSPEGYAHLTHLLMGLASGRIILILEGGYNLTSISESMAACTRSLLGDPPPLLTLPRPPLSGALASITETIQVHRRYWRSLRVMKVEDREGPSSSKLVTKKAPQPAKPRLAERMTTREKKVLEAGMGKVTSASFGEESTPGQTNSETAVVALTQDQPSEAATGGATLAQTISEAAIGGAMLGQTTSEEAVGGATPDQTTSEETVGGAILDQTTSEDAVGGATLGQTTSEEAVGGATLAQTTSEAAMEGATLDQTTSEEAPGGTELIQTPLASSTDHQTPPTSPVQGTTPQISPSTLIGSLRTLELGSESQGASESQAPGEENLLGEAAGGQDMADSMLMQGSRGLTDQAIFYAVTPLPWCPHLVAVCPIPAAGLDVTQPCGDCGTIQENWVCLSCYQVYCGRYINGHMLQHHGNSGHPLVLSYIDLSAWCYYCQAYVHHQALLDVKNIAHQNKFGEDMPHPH
Experiment: Inhibition of recombinant human full length N-terminal GST-tagged HDAC6 expressed in Sf9 cells using ZMAL (Z-(Ac)Lys-AMC as substrate measured after 90 mins by fluorescence plate reader analysis
Listed next: entries and their corresponding pIC50.
By convention, pIC50 is the negative base-10 log of a molar concentration.

Using known records, supply pIC50 for O=C(NO)c1ccc(CC(=O)N2CCC(N3CC(c4ccccc4)(c4ccccc4)C3=O)CC2)cc1
7.04

Using known records, supply pIC50 for O=C(NO)c1ccc(CNC(=O)N2CCC(N3CC(c4ccccc4)(c4ccccc4)C3=O)CC2)cc1
8.47

Using known records, supply pIC50 for Cc1cccc(C2CC(=O)N2C2CCN(C(=O)NCc3ccc(C(=O)NO)cc3)CC2)c1 (racemic)
6.40

Using known records, supply pIC50 for O=C(NO)c1ccc(CNC(=O)N2CCC(N3C(=O)CC3c3cccc(Cl)c3)CC2)cc1 (racemic)
6.57
